Below, each entry is listed with its recorded MIC90.
- Tested on: Porphyromonas spp.
- PROTOCOL_SUMMARY: Agar dilution MIC
- Format: cell-based, Porphyromonas cangingivalis, cansulci, circumdentaria, levii
- STATED_CONDITIONS: Porphyromonas; 11 isolates; read-out: Minimal Inhibitory Concentration 90% (MIC90)
Numeric only. Scale: µg/mL

[
  {
    "COMPOUND": "CO/N=C1\\CN(c2nc3c(cc2F)c(=O)c(C(=O)O)cn3C2CC2)CC1CN (racemic) [Gemifloxacin]",
    "MIC90, µg/mL": 0.125
  },
  {
    "COMPOUND": "N[C@@H]1[C@H]2CN(c3nc4c(cc3F)c(=O)c(C(=O)O)cn4-c3ccc(F)cc3F)C[C@@H]12 [Trovafloxacin]",
    "MIC90, µg/mL": 1
  },
  {
    "COMPOUND": "CC[C@H]1OC(=O)[C@H](C)[C@@H](O[C@H]2C[C@@](C)(OC)[C@@H](O)[C@H](C)O2)[C@H](C)[C@@H](O[C@@H]2O[C@H](C)C[C@H](N(C)C)[C@H]2O)[C@](C)(OC)C[C@@H](C)C(=O)[C@H](C)[C@@H](O)[C@]1(C)O [Clarithromycin]",
    "MIC90, µg/mL": 0.125
  },
  {
    "COMPOUND": "CC[C@H]1OC(=O)[C@H](C)[C@@H](O[C@H]2C[C@@](C)(OC)[C@@H](O)[C@H](C)O2)[C@H](C)[C@@H](O[C@@H]2O[C@H](C)C[C@H](N(C)C)[C@H]2O)[C@](C)(O)C[C@@H](C)C(=O)[C@H](C)[C@@H](O)[C@]1(C)O [Erythromycin]",
    "MIC90, µg/mL": 0.06
  }
]

Query compound follows.
Please report the measured MIC90 for CC[C@H]1OC(=O)[C@H](C)[C@@H](O[C@H]2C[C@@](C)(OC)[C@@H](O)[C@H](C)O2)[C@H](C)[C@@H](O[C@@H]2O[C@H](C)C[C@H](N(C)C)[C@H]2O)[C@](C)(O)C[C@@H](C)CN(C)[C@H](C)[C@@H](O)[C@]1(C)O [Azithromycin] tested on Porphyromonas spp..
0.5

====

- System: Veillonella spp.
- PROTOCOL_SUMMARY: Agar dilution MIC
- Assay type: cell-based
- STATED_CONDITIONS: Veillonella, read-out: Minimal Inhibitory Concentration 50% (MIC50); 24 isolates
METRIC: log10 of MIC50 (log10 of the value in mg/L)
Scale: log10; quantity: MIC50; unit before log: mg/L

Report log10 of MIC50, nothing else, for this molecule: N[C@@H]1[C@H]2CN(c3nc4c(cc3F)c(=O)c(C(=O)O)cn4-c3ccc(F)cc3F)C[C@@H]12
-0.60

Report log10 of MIC50, nothing else, for this molecule: CC[C@H]1OC(=O)[C@H](C)[C@@H](O[C@H]2C[C@@](C)(OC)[C@@H](O)[C@H](C)O2)[C@H](C)[C@@H](O[C@@H]2O[C@H](C)C[C@H](N(C)C)[C@H]2O)[C@](C)(O)C[C@@H](C)C(=O)[C@H](C)[C@@H](O)[C@]1(C)O
1.20

Report log10 of MIC50, nothing else, for this molecule: CC[C@H]1OC(=O)[C@H](C)[C@@H](O[C@H]2C[C@@](C)(OC)[C@@H](O)[C@H](C)O2)[C@H](C)[C@@H](O[C@@H]2O[C@H](C)C[C@H](N(C)C)[C@H]2O)[C@](C)(O)C[C@@H](C)CN(C)[C@H](C)[C@@H](O)[C@]1(C)O
0.60

Report log10 of MIC50, nothing else, for this molecule: CCC[C@@H]1C[C@@H](C(=O)N[C@@H]([C@H]2O[C@H](SC)[C@H](O)[C@@H](O)[C@H]2O)[C@H](C)Cl)N(C)C1
-1.22

Report log10 of MIC50, nothing else, for this molecule: Cc1ncc([N+](=O)[O-])n1CCO
0.00

Report log10 of MIC50, nothing else, for this molecule: CC[C@H]1OC(=O)[C@H](C)[C@@H](O[C@H]2C[C@@](C)(OC)[C@@H](O)[C@H](C)O2)[C@H](C)[C@@H](O[C@@H]2O[C@H](C)C[C@H](N(C)C)[C@H]2O)[C@](C)(OC)C[C@@H](C)C(=O)[C@H](C)[C@@H](O)[C@]1(C)O
1.20

====

- Test system: Anaerobiospirillum thomasii
- PROTOCOL_SUMMARY: Agar dilution MIC
- Format: cell-based
- STATED_CONDITIONS: Anaerobiospirillum thomasii; 13 isolates; read-out: Minimal Inhibitory Concentration 90% (MIC90)
METRIC: MIC90 (µg/mL)
Numeric only. Scale: µg/mL

[
  {
    "COMPOUND": "CO/N=C1\\CN(c2nc3c(cc2F)c(=O)c(C(=O)O)cn3C2CC2)CC1CN (racemic)",
    "MEASUREMENT_TARGET": "Anaerobiospirillum thomasii",
    "MIC90, µg/mL": 0.125
  }
]

Report MIC90, nothing else, for this compound: Cc1ncc([N+](=O)[O-])n1CCO
4

Report MIC90, nothing else, for this compound: N[C@@H]1[C@H]2CN(c3nc4c(cc3F)c(=O)c(C(=O)O)cn4-c3ccc(F)cc3F)C[C@@H]12
0.25

Report MIC90, nothing else, for this compound: CC[C@H]1OC(=O)[C@H](C)[C@@H](O[C@H]2C[C@@](C)(OC)[C@@H](O)[C@H](C)O2)[C@H](C)[C@@H](O[C@@H]2O[C@H](C)C[C@H](N(C)C)[C@H]2O)[C@](C)(OC)C[C@@H](C)C(=O)[C@H](C)[C@@H](O)[C@]1(C)O
16

Report MIC90, nothing else, for this compound: CC[C@H]1OC(=O)[C@H](C)[C@@H](O[C@H]2C[C@@](C)(OC)[C@@H](O)[C@H](C)O2)[C@H](C)[C@@H](O[C@@H]2O[C@H](C)C[C@H](N(C)C)[C@H]2O)[C@](C)(O)C[C@@H](C)CN(C)[C@H](C)[C@@H](O)[C@]1(C)O
1

Report MIC90, nothing else, for this compound: CC[C@H]1OC(=O)[C@H](C)[C@@H](O[C@H]2C[C@@](C)(OC)[C@@H](O)[C@H](C)O2)[C@H](C)[C@@H](O[C@@H]2O[C@H](C)C[C@H](N(C)C)[C@H]2O)[C@](C)(O)C[C@@H](C)C(=O)[C@H](C)[C@@H](O)[C@]1(C)O
8

====

- Test system: Bacteroides gracilis
- PROTOCOL_SUMMARY: Agar dilution MIC
- Assay type: cell-based, Bacteroides gracilis (Campylobacter gracilis)
- STATED_CONDITIONS: Campylobacter gracilis, read-out: Minimal Inhibitory Concentration 50% (MIC50); 11 isolates
Below, each entry is listed with its recorded MIC50.
Numeric only. Scale: µg/mL

Use these answered entries as a reference point.
[
  {
    "SMILES_INPUT": "Cc1ncc([N+](=O)[O-])n1CCO",
    "MIC50 (µg/mL)": 0.5
  },
  {
    "SMILES_INPUT": "CC[C@H]1OC(=O)[C@H](C)[C@@H](O[C@H]2C[C@@](C)(OC)[C@@H](O)[C@H](C)O2)[C@H](C)[C@@H](O[C@@H]2O[C@H](C)C[C@H](N(C)C)[C@H]2O)[C@](C)(O)C[C@@H](C)C(=O)[C@H](C)[C@@H](O)[C@]1(C)O",
    "MIC50 (µg/mL)": 1
  }
]

Query compound follows.
Please report the measured MIC50 for CC[C@H]1OC(=O)[C@H](C)[C@@H](O[C@H]2C[C@@](C)(OC)[C@@H](O)[C@H](C)O2)[C@H](C)[C@@H](O[C@@H]2O[C@H](C)C[C@H](N(C)C)[C@H]2O)[C@](C)(O)C[C@@H](C)CN(C)[C@H](C)[C@@H](O)[C@]1(C)O tested on Bacteroides gracilis.
0.125

====

- System: Prevotella buccae-oris group
- PROTOCOL_SUMMARY: Agar dilution MIC
- Assay type: cell-based
- STATED_CONDITIONS: Prevotella, 22 isolates; read-out: Minimal Inhibitory Concentration 90% (MIC90)
METRIC: MIC90 (µg/mL)
Numeric only. Scale: µg/mL

Use these answered entries as a reference point.
[
  {
    "SMILES_INPUT": "N[C@@H]1[C@H]2CN(c3nc4c(cc3F)c(=O)c(C(=O)O)cn4-c3ccc(F)cc3F)C[C@@H]12",
    "METRIC": "MIC90",
    "RECORDED_VALUE": 2
  },
  {
    "SMILES_INPUT": "CC[C@H]1OC(=O)[C@H](C)[C@@H](O[C@H]2C[C@@](C)(OC)[C@@H](O)[C@H](C)O2)[C@H](C)[C@@H](O[C@@H]2O[C@H](C)C[C@H](N(C)C)[C@H]2O)[C@](C)(OC)C[C@@H](C)C(=O)[C@H](C)[C@@H](O)[C@]1(C)O",
    "METRIC": "MIC90",
    "RECORDED_VALUE": 0.25
  },
  {
    "SMILES_INPUT": "Cc1ncc([N+](=O)[O-])n1CCO",
    "METRIC": "MIC90",
    "RECORDED_VALUE": 2
  },
  {
    "SMILES_INPUT": "CC[C@H]1OC(=O)[C@H](C)[C@@H](O[C@H]2C[C@@](C)(OC)[C@@H](O)[C@H](C)O2)[C@H](C)[C@@H](O[C@@H]2O[C@H](C)C[C@H](N(C)C)[C@H]2O)[C@](C)(O)C[C@@H](C)C(=O)[C@H](C)[C@@H](O)[C@]1(C)O",
    "METRIC": "MIC90",
    "RECORDED_VALUE": 2
  },
  {
    "SMILES_INPUT": "CCC[C@@H]1C[C@@H](C(=O)N[C@@H]([C@H]2O[C@H](SC)[C@H](O)[C@@H](O)[C@H]2O)[C@H](C)Cl)N(C)C1",
    "METRIC": "MIC90",
    "RECORDED_VALUE": 0.03
  }
]

Report MIC90, nothing else, for this molecule: CC[C@H]1OC(=O)[C@H](C)[C@@H](O[C@H]2C[C@@](C)(OC)[C@@H](O)[C@H](C)O2)[C@H](C)[C@@H](O[C@@H]2O[C@H](C)C[C@H](N(C)C)[C@H]2O)[C@](C)(O)C[C@@H](C)CN(C)[C@H](C)[C@@H](O)[C@]1(C)O
1

The origin of these recorded values is patent US6455540B1.
